The measurements presented in this section are drawn from the supplement of paper PMC11451515.

- Tested on: NOMO1
- Method description: cell viability relative to DMSO control; higher = less cytotoxic
- Measurement conditions: RPMI 5 mM glucose + 10% dialyzed FBS; 48 h; 0.0211 µM
Measured endpoint: cell viability (%)

Smiles record	Measured endpoint	Value
CC[C@@H]1C(=O)N(C)c2cnc(Nc3ccc(C(=O)NC4CCN(C)CC4)cc3OC)nc2N1C1CCCC1	cell viability	117
COC(=O)[C@H](c1ccccc1Cl)N1CCc2sccc2C1	cell viability	94.4
CC(C)c1c(C(=O)Nc2ccccc2)c(-c2ccccc2)c(-c2ccc(F)cc2)n1CC[C@@H](O)C[C@@H](O)CC(=O)[O-]	cell viability	89.6
CC[C@H]1CN2CCc3cc(OC)c(OC)cc3[C@@H]2C[C@@H]1C[C@H]1NCCc2cc(OC)c(OC)cc21	cell viability	123
Cc1c(C(=O)c2cccc3ccccc23)c2cccc3c2n1[C@H](CN1CCOCC1)CO3	cell viability	86.9
Oc1c(Cl)cc(Cl)c2cccnc12	cell viability	97.7
Cn1cnc([N+](=O)[O-])c1Sc1ncnc2nc[nH]c12	cell viability	90
COc1ccc([S+](=O)([O-])Nc2cccnc2Nc2ccc(O)cc2)cc1	cell viability	111
CS[C@H]1SC[C@@H]2C(=O)N(C)[C@H](C(C)C)C(=O)OC[C@H](NC(=O)c3cnc4ccccc4n3)C(=O)N[C@H](C)C(=O)N(C)[C@H]1C(=O)N(C)[C@H](C(C)C)C(=O)OC[C@H](NC(=O)c1cnc3ccccc3n1)C(=O)N[C@H](C)C(=O)N2C	cell viability	49.8
